Recorded values, source the supplement of paper PMC11208160.

test: recombinant UMI read abundance after kanamycin selection (control-corrected) (log10(CPM+1)); higher = more efficient recombination; extreme values may be limits of the assay; sequences stand for … in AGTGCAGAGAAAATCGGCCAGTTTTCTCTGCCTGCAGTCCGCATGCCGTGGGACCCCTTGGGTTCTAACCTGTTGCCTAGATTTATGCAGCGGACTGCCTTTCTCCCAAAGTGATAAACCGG…AGGTTGGTTTCACT; site = the 11-nt donor;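 note: IS621 bridge recombinase in Escherichia coli cells against a fixed T5 target plasmid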
# binning rule on recombinant UMI read abundance (log10): zone 1 = under 0.004, zone 2 = from 0.004 up to 1, zone 3 = 1 and over

Worked set:
TCATAGACATGGACCGGTTTTCCCGGTAATCCGTATTTGCG (site TCACAGACTCG) ... zone 2
TGCAAGGCATGGACCGGTTTTCCCGGTAATCCGTATTTGGT (site TGCGAGGCTAC) ... zone 2
CAGGTCGCATGGACCGGTTTTCCCGGTAATCCGTATTTGAT (site CAGGTCGCTAT) ... zone 3

Hi, small favor: classify CAAGTCACATGGACCGGTTTTCCCGGTAATCCGTATTTGGG (site CGAGTCACTCC) by its recombinant UMI read abundance (log10) when you get a moment. zone 2

Would you mind doing CGCCATGCATGGACCGGTTTTCCCGGTAATCCGTATTTGAC (site CGCCATGCTGT) as well? zone 3

Would you mind doing ATCCTTTCATGGACCGGTTTTCCCGGTAATCCGTATTTGAC (site AGCCTTTCTGT) as well? zone 1

Would you mind doing GACAGACCATGGACCGGTTTTCCCGGTAATCCGTATTTGGT (site GACAGACCTAC) as well? zone 2

Would you mind doing CCCATATCATGGACCGGTTTTCCCGGTAATCCGTATTTGTC (site CCCATATCTGC) as well? zone 1

Would you mind doing CAGGCAGCATGGACCGGTTTTCCCGGTAATCCGTATTTGCT (site CACGCAGCTAG) as well? zone 1

----------
Overview of recorded recombinant UMI read abundance (log10) for various sequences
assay: recombinant UMI read abundance after kanamycin selection (control-corrected) (log10(CPM+1)); higher = more efficient recombination; extreme values may be limits of the assay; sequences stand for … in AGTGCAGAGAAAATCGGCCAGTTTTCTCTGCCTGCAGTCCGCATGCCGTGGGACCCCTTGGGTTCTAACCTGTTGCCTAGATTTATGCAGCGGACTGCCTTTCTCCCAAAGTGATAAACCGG…AGGTTGGTTTCACT; site = the 11-nt donor
// return a plain number; no unit text

Solved entries (count: 6):
CGTTAGACATGGACCGGTTTTCCCGGTAATCCGTATTTGAT (site CGTTAGACTGT) ... 0
TCGACACCATGGACCGGTTTTCCCGGTAATCCGTATTTGGA (site TCGACACCTTC) ... 0.0336
TGCTAGGCATGGACCGGTTTTCCCGGTAATCCGTATTTGGA (site TGCTAGGCTTC) ... 0.261
CAATTCACATGGACCGGTTTTCCCGGTAATCCGTATTTGCT (site CAATTCCCTAG) ... 0
GTTCGAGCATGGACCGGTTTTCCCGGTAATCCGTATTTGCC (site GTTCGAGCTCG) ... 0.00775
CTAGTAACATGGACCGGTTTTCCCGGTAATCCGTATTTGAC (site CTAGTATCTGT) ... 1.83

Can you look up the measured recombinant UMI read abundance (log10) of ATCCAAGCATGGACCGGTTTTCCCGGTAATCCGTATTTGAA (site ATCCAAGCTCT) for me? 0.445

Would you mind doing GCTTGCCCATGGACCGGTTTTCCCGGTAATCCGTATTTGAT (site GCTTGCCCTAT) as well? 0.0141

Would you mind doing ATGCACGCATGGACCGGTTTTCCCGGTAATCCGTATTTGGG (site AGGCACGCTCC) as well? 0.0274

Would you mind doing CTACTAACATGGACCGGTTTTCCCGGTAATCCGTATTTGGA (site CTAGTAACTTC) as well? 0.141

----------
assay: recombinant UMI read abundance after kanamycin selection (control-corrected) (log10(CPM+1)); higher = more efficient recombination; extreme values may be limits of the assay; sequences stand for … in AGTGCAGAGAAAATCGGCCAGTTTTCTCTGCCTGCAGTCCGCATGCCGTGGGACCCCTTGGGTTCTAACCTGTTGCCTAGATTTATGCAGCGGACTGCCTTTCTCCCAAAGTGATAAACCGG…AGGTTGGTTTCACT; site = the 11-nt donor
Binary classification by recombinant UMI read abundance (log10), with 1 as an inclusive lower bound for satisfied; all other cases are not satisfied.

Worked set:
GTGGGGGCATGGACCGGTTTTCCCGGTAATCCGTATTTGTG (site GTGGAGGCTCA) ... satisfied
ATCCAATCATGGACCGGTTTTCCCGGTAATCCGTATTTGAG (site ATCCAAGCTCT) ... not satisfied
CAACGCTCATGGACCGGTTTTCCCGGTAATCCGTATTTGAA (site CAATGCTCTTT) ... not satisfied
GAAGATTCATGGACCGGTTTTCCCGGTAATCCGTATTTGTT (site CAAGATTCTAA) ... satisfied
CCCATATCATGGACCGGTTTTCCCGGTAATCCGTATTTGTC (site CTCATATCTGA) ... not satisfied

Decide: is the reported value of recombinant UMI read abundance (log10) for GTTGTTACATGGACCGGTTTTCCCGGTAATCCGTATTTGCA (site GTTGTTACTTG) equal to or greater than 1? satisfied

Would you mind doing ATCGCCTCATGGACCGGTTTTCCCGGTAATCCGTATTTGGG (site ATCGCCTCTCC) as well? not satisfied

Would you mind doing CACTCCTCATGGACCGGTTTTCCCGGTAATCCGTATTTGAC (site CACTCCTCTGT) as well? satisfied

----------
assay: recombinant UMI read abundance after kanamycin selection (control-corrected) (log10(CPM+1)); higher = more efficient recombination; extreme values may be limits of the assay; sequences stand for … in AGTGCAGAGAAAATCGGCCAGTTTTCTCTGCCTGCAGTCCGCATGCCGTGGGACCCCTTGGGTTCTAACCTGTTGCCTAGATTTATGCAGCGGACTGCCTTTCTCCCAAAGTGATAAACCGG…AGGTTGGTTTCACT; site = the 11-nt donor
Binary classification by recombinant UMI read abundance (log10), with 0.3 as an inclusive lower bound for MET; all other cases are NOT MET.

CGAAGCCCATGGACCGGTTTTCCCGGTAATCCGTATTTGAT (site CGAAGCCCTAT) ... MET
CCGTAATCATGGACCGGTTTTCCCGGTAATCCGTATTTGCG (site CCGTAATCTCG) ... MET
ACAGTATCATGGACCGGTTTTCCCGGTAATCCGTATTTGCA (site ACAGTATCTTC) ... MET
GACTCCCCATGGACCGGTTTTCCCGGTAATCCGTATTTGCA (site GACTCCCCTTG) ... MET
TCCGATTCATGGACCGGTTTTCCCGGTAATCCGTATTTGCC (site TCCCATTCTGG) ... NOT MET

Decide: is the reported value of recombinant UMI read abundance (log10) for CCTAAAACATGGACCGGTTTTCCCGGTAATCCGTATTTGAT (site CCTAAAGCTAT) equal to or greater than 0.3? NOT MET

Would you mind doing AGGTTCCCATGGACCGGTTTTCCCGGTAATCCGTATTTGTG (site AGGTTCCCTCC) as well? NOT MET

Would you mind doing GGCAATCCATGGACCGGTTTTCCCGGTAATCCGTATTTGAA (site GGCTATCCTTT) as well? MET

Would you mind doing TAGCCGTCATGGACCGGTTTTCCCGGTAATCCGTATTTGGT (site TAGCCTTCTAC) as well? NOT MET

----------
test: recombinant UMI read abundance after kanamycin selection (control-corrected) (log10(CPM+1)); higher = more efficient recombination; extreme values may be limits of the assay; sequences stand for … in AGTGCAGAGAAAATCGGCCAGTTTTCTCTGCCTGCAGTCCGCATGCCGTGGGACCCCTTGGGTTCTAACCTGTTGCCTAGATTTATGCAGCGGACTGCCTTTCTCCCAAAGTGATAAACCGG…AGGTTGGTTTCACT; site = the 11-nt donor
# binning rule on recombinant UMI read abundance (log10): class 1 (below 0.002), class 2 (0.002 to below 2), class 3 (2 or more)

ATGGAAACATGGACCGGTTTTCCCGGTAATCCGTATTTGCA (site GTGGAAACTTG) ... class 1

Hi, small favor: classify ACAGTCACATGGACCGGTTTTCCCGGTAATCCGTATTTGCA (site ACAGTATCTTG) by its recombinant UMI read abundance (log10) when you get a moment. class 2

----------
assay: recombinant UMI read abundance after kanamycin selection (control-corrected) (log10(CPM+1)); higher = more efficient recombination; extreme values may be limits of the assay; sequences stand for … in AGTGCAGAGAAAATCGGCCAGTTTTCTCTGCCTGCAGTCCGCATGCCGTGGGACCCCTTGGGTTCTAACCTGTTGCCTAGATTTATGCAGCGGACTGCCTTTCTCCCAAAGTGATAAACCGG…AGGTTGGTTTCACT; site = the 11-nt donor
Overview of recorded recombinant UMI read abundance (log10) for various sequences
// return a plain number; no unit text

Solved entries (count: 4):
TACCTAGCATGGACCGGTTTTCCCGGTAATCCGTATTTGAA (site TATCTAGCTTT) ... 0.0166
CGATGTCCATGGACCGGTTTTCCCGGTAATCCGTATTTGGA (site CGATGTCCTTC) ... 0.0178
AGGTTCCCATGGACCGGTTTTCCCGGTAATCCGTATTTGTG (site AGGTTCCCTCA) ... 0.152
GTTCGAGCATGGACCGGTTTTCCCGGTAATCCGTATTTGCA (site GGTCGAGCTTG) ... 0.00484

Can you look up the measured recombinant UMI read abundance (log10) of CACGGCCCATGGACCGGTTTTCCCGGTAATCCGTATTTGCT (site CACGGCCCTAC) for me? 0.0286

Would you mind doing GGTCTAACATGGACCGGTTTTCCCGGTAATCCGTATTTGTA (site GGTCTAACTTA) as well? 0.607

Would you mind doing AGGACTACATGGACCGGTTTTCCCGGTAATCCGTATTTGAC (site AGGACGACTGT) as well? 0.00571

Would you mind doing CGGAAACCATGGACCGGTTTTCCCGGTAATCCGTATTTGAT (site CGGAAACCTAT) as well? 0

Would you mind doing CGTGAACCATGGACCGGTTTTCCCGGTAATCCGTATTTGAT (site CGAGAACCTAT) as well? 0.0201

Would you mind doing TACAGTCCATGGACCGGTTTTCCCGGTAATCCGTATTTGCG (site TACAGTCCTCG) as well? 0.004

Would you mind doing CACTGCCCATGGACCGGTTTTCCCGGTAATCCGTATTTGTT (site CACGGCCCTAA) as well? 0.0106

Would you mind doing CCGTTTACATGGACCGGTTTTCCCGGTAATCCGTATTTGCT (site ACGTTTACTAG) as well? 0

Would you mind doing CAACTCCCATGGACCGGTTTTCCCGGTAATCCGTATTTGCT (site CAAATCCCTAG) as well? 0.818

Would you mind doing TGGAAGACATGGACCGGTTTTCCCGGTAATCCGTATTTGTA (site AGGAAGACTTG) as well? 0.00598

Would you mind doing GTAGGATCATGGACCGGTTTTCCCGGTAATCCGTATTTGAC (site CTAGTATCTGT) as well? 0.851

Would you mind doing CCCTGTCCATGGACCGGTTTTCCCGGTAATCCGTATTTGCA (site CCCTGTCCTTG) as well? 0.00678

Would you mind doing GTAGGCGCATGGACCGGTTTTCCCGGTAATCCGTATTTGCG (site GTAGACGCTCG) as well? 2.78

Would you mind doing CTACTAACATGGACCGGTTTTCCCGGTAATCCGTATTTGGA (site CTACGAACTTC) as well? 0.00735

Would you mind doing TATTAGGCATGGACCGGTTTTCCCGGTAATCCGTATTTGTG (site TATTCGGCTCA) as well? 0.00717

Would you mind doing GCAACGCCATGGACCGGTTTTCCCGGTAATCCGTATTTGTA (site GCTACGCCTTA) as well? 0.0211

Would you mind doing TCATAGACATGGACCGGTTTTCCCGGTAATCCGTATTTGGA (site TCATAGACTTC) as well? 0.712

Would you mind doing AGATTAGCATGGACCGGTTTTCCCGGTAATCCGTATTTGAC (site AGATTAGCTGT) as well? 2.75

Would you mind doing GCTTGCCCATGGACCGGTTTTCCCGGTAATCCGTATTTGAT (site GCTTGCCCTTT) as well? 0.0171
